# measurement_target: human GLP-1 receptor (human, UniProt P43220 24-463)
# protocol_text: cell-based or functional assay
property_measured: cAMP EC50 (nM)
Please state the figure in nM; there is no need to write the unit.

[in] Which cAMP EC50 is reported for this binder? IP384 (Fc fusion) YSEGTFTSDYSKLLEEEAVRLFIEWLLKGGGGGGSGGGGSGGGGSGGGGSATHTCPPC
[out] 0.091

[in] Which cAMP EC50 is reported for this binder? YSEGTFTSDYSKLLEEEAVRLFIEWLVKGPGGGGGGGGGGGGATHTCPPC (Fc fusion) [IP284]
[out] 0.2

[in] Which cAMP EC50 is reported for this binder? YSEGTFTSDYSKLLEEEAVRLFIEWLVKGPGGGGGGGATHTCPPC (Fc fusion) [IP283]
[out] 0.56

[in] Which cAMP EC50 is reported for this binder? IP258 (Fc fusion) YSEGTFTSDYSKLLDEEAVRLFIEWLVKGPGGGGGSGGGGSGGGGSGGGGSATHTCPPCPAPEF
[out] 0.42

[in] Which cAMP EC50 is reported for this binder? IP291 (Fc fusion) YSEGTFTSDYSKLLEEECVRLFIEWLVKGGPGGGAPPPGCGGGGGGGGGGGGGGGGGACPPC
[out] 12
